- Tested on: NCI/ADR-RES ovarian
- PROCEDURE_SUMMARY: NCI tumour cell line growth inhibition, 48 h
TGI values by entry
QUANTITY: TGI

COMPOUND	QUANTITY	RESULT
CC1(C(=O)O)CCC2(C)CCC3(C)C(=CC(=O)C4C5(C)CCC(O)C(C)(C)C5CCC43C)C2C1 (centres undefined)	TGI	> 100 µM
O=C(Cc1ccc(O)c(O)c1)NCc1c[nH]c2ccccc12	TGI	> 100 µM
O=C(/C=C/c1ccccc1)C[C@@H](O)C[C@@H]1CC=CC(=O)O1	TGI	> 85.5 µM
Cc1ccc(-c2cc(-c3ccco3)c(C#N)c(=S)n2C2OC(CO)C(O)C(O)C2O)cc1 (centres undefined)	TGI	> 100 µM
O=[N+]([O-])c1ccc(Cl)cc1N/N=C/c1ccnc2ccccc12	TGI	> 100 µM
Cc1cccc(Cn2c3c(c4cc(O)ccc42)C(=O)c2ccccc2C3=O)c1	TGI	> 67.8 µM
O=C(OCc1ccccc1)N1CCNCCN(C(=O)OCc2ccccc2)CCNCC1	TGI	> 100 µM
O=C(O)c1ccc2c(c1C(=O)O)C(=O)OC2(c1ccc(O)cc1)c1ccc(O)cc1	TGI	> 100 µM
O=C(/C(=C/c1ccc([N+](=O)[O-])cc1)SCc1ccccc1)c1ccc(Cl)cc1	TGI	17.7 µM
Nc1c(S(=O)(=O)O)cc2cc(S(=O)(=O)O)ccc2c1N=Nc1ccc(-c2ccc(N=Nc3c(N)c(S(=O)(=O)O)cc4cc(S(=O)(=O)O)ccc34)c(S(=O)(=O)O)c2)cc1	TGI	> 100 µM
Cc1cc(C)nc(NS(=O)(=O)c2ccc(NC(=O)c3ccc4nc5ccccc5c(Nc5ccc(S(N)(=O)=O)cc5)c4c3)cc2)n1	TGI	> 100 µM
O=C(c1ccccn1)C1(N2CCCCC2)CCCCC1	TGI	> 100 µM
Nc1n[nH]c2cccc(C#Cc3cccc(C(=O)Nc4ccc(CN5CCOCC5)c(C(F)(F)F)c4)c3)c12	TGI	> 100 µM
NS(=O)(=O)c1nnc(NC(=O)Nc2ccc(Cl)c(Cl)c2)s1	TGI	55.7 µM
C(=C(c1ccc(OC2CCCCO2)cc1)c1ccc(OC2CCCCO2)cc1)c1ccccc1 (centres undefined)	TGI	2.92 µM
O=C1CCC2(c3ccc(Cl)cc3)Nc3ccncc3N12 (centres undefined)	TGI	> 10 µM
C=C1CCN2CC[C@@H](OC(=O)/C(C)=C\C)[C@@H]12	TGI	> 100 µM
Cc1csc(-c2nnc(Nc3ccc(Oc4ncccc4-c4ccnc(N)n4)cc3)c3ccccc23)c1	TGI	> 100 µM
COc1ccc(C(=C2C=CC=C2)c2ccc(OC)cc2)cc1	TGI	> 100 µM
O=C(/C=C/c1ccc2c(c1)OCO2)Cc1nc2ncccc2[nH]c1=O	TGI	> 100 µM
COc1ccc(/C=N/NC(=O)c2cccc3cc[nH]c23)cc1O	TGI	> 100 µM
Cn1ccc2c3c(Oc4ccc(NC(N)=O)cc4)ccnc3ccc21	TGI	> 100 µM
CCOC(=S)SCC(=O)O	TGI	> 100 µM
Cc1oc2c(cc(O)c3cc(O)ccc32)c2cccc1-2	TGI	> 100 µM
Cc1cc(Nc2ccc(S(=O)(=O)O)c3cc(S(=O)(=O)O)cc(S(=O)(=O)O)c23)c2ccccc2n1	TGI	> 100 µM
CCN(Cc1ccc(F)cc1)c1cc(Cl)c(CO)c(Cl)c1	TGI	31.4 µM
Cc1cc(-c2nc3ccc(F)cc3s2)ccc1NC(=O)[C@H](C)N	TGI	28.5 µM
C[C@]12CCC3C4=C(CCC3C1CCC2=O)C(=O)[C@H]1O[C@H]1C4=O (some centres undefined)	TGI	17.3 µM
c1ccc(Sc2ncnc3ccccc23)cc1	TGI	35 µM
COC(=O)c1c(C)nc2c1cc(O)c1[nH]c(C)c(C)nc12	TGI	> 100 µM
CCCOc1cc2ccccc2cc1C(=O)Nc1nc(N)c2c(ccc3nccc32)[nH]1	TGI	2.24 µM
CC1CN(C)c2ccccc2N=C1NN (centres undefined)	TGI	> 100 µM
O=C(NCc1ccccc1)c1n[nH][nH]c1=O	TGI	> 100 µM
CN(C)CCNS(=O)(=O)c1ccc(N)cc1	TGI	> 100 µM
COc1cc(S(=O)(=O)Nc2nc(-c3ccc(N4C(=O)C(CC(=O)O)SC4c4cccs4)cc3)cs2)ccc1Cl (centres undefined)	TGI	76.6 µM
CCCCCCCCCCCCC(O)c1ccc(C#CCCCCCCCCCO)o1 (centres undefined)	TGI	34.3 µM
COc1cccc(C2SC(N)=Nc3c2c(C)nn3C(=O)c2ccccc2O)c1 (centres undefined)	TGI	> 10 µM
NC(N)=Nc1ccc(CC(N)NCC(=O)O)cc1 (centres undefined)	TGI	> 25 µM
Nc1n[nH]c2cc(F)c([C@@H]3Nc4ccc5[nH]ncc5c4[C@H]4C5CCC(C5)[C@@H]34)cc12 (some centres undefined)	TGI	0.746 µM
